measurement-target: recombinant human baculovirus-expressed GST-tagged FASN (Homo sapiens, UniProt P49327)
Construct: GST
Sequence (P49327 whole entry): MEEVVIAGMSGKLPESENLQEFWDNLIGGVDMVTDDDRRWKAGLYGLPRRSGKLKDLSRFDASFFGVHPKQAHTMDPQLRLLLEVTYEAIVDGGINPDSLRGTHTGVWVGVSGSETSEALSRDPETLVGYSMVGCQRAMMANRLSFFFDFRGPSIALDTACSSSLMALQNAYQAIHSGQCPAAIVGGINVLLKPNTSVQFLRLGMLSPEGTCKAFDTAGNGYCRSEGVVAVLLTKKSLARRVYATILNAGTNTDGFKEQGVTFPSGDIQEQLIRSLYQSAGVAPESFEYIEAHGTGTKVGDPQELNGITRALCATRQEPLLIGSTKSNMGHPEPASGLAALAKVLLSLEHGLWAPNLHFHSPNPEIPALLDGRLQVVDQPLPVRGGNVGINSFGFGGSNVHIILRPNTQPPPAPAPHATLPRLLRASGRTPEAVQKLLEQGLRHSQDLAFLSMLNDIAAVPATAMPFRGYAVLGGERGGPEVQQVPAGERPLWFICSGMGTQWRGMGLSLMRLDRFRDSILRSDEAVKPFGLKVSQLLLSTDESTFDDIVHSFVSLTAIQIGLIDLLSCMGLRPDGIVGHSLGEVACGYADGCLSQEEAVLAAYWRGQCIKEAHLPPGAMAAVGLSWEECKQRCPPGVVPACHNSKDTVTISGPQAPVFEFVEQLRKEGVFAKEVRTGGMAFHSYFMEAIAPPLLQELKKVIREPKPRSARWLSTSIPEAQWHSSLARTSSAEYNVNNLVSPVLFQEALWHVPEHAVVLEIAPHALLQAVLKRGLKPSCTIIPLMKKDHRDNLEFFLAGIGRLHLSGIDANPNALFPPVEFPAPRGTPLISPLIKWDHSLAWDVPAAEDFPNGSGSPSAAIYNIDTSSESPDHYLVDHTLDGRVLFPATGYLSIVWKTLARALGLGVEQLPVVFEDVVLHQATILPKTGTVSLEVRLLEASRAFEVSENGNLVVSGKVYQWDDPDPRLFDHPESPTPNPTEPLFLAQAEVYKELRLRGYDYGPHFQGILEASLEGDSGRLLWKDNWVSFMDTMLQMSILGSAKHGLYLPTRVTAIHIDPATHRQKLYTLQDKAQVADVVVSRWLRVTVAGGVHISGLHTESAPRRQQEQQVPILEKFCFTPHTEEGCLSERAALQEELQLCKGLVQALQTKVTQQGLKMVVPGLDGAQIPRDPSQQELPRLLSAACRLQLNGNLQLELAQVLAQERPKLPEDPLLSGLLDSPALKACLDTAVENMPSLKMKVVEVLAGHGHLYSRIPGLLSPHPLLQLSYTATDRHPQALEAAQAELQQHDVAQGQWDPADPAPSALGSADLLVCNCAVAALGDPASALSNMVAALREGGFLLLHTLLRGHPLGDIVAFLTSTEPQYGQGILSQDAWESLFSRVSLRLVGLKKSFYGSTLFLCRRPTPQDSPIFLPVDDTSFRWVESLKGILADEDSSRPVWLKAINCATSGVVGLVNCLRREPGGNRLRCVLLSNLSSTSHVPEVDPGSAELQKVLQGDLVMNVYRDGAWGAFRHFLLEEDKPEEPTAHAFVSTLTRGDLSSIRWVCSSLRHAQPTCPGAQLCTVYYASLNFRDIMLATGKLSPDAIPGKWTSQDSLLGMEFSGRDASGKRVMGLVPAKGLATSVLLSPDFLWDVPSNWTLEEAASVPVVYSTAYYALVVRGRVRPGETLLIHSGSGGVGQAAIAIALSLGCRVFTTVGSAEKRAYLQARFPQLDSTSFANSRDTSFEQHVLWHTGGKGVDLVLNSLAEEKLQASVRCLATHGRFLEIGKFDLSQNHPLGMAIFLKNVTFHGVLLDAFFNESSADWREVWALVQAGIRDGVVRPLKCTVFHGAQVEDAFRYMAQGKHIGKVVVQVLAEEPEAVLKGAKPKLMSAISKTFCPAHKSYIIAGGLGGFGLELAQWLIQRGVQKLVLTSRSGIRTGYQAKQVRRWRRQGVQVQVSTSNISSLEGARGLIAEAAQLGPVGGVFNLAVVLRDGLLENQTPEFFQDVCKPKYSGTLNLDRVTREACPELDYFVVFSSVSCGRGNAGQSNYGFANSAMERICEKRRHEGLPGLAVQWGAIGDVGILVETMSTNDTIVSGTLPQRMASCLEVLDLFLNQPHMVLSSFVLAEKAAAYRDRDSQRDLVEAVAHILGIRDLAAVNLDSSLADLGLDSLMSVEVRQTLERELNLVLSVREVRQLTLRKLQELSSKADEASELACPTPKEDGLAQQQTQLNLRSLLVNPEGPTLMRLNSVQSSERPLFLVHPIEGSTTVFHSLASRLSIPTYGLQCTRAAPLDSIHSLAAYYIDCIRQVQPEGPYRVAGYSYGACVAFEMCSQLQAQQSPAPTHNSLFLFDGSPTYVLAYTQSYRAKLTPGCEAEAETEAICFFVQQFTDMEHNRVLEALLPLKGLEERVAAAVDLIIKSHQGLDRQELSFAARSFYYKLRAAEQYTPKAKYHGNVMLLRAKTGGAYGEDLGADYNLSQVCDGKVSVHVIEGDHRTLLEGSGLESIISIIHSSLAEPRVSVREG
assay-protocol: FASN enzyme activity assay, fluorescence-based detection of CoA with CPM
Format: biochemical
setup-conditions: 5 nM FASN, 150 μM NADPH, 10 μM acetyl-CoA, 25 μM malonyl-CoA, 90 minutes incubation; read-out: IC50 data for Compounds of Formulae I-V/V(a): Activity
Description: FASN Enzyme activity may be determined by detecting coenzyme A (CoA), a product of FASN-catalyzed synthesis of palmitate from acetyl-CoA and malonyl-CoA with NADPH as a cofactor. The assay is fluorescence-based and measures the interaction of free CoA with 7-diethylamino-3-(4′-malemimidylphenyl)-4-methylcoumarin (CPM; Life Technologies, CA) as described in Chung et al (2008). […]
Counter-ions that a name gives are not always drawn.
Please provide measured IC50 for the entries that follow.

Known IC50 results, listed for orientation:
                                   compound            result
0  COc1c(-c2ccc(OC3CCN(C(=O)N4CCCO4)CC3)cc2)ccc2cccnc12        1 to 99 nM
1  O=C(C1CC1)N1CCC(Oc2ccc(-c3ccc4cccnc4c3O)cc2)CC1 [Example 189, HCl]     100 to 999 nM
2  CCC(=O)N1CCC(Oc2ccc(-c3cnc4ccccc4c3N(C)C)cc2)CC1  1000 to 10000 nM
3  CCC(=O)N1CCC(Oc2ccc(-c3ccc4cnn(C)c4c3)cc2)CC1 [Example 249, TFA salt]     100 to 999 nM
4  CCC(=O)N1CCC(Oc2ccc(-c3cnc4cccc(OC)c4c3)cc2)CC1 [Example 463, HCl]  1000 to 10000 nM
5  O=C(C1CCOC1)N1CCC(Oc2ccc(-c3cnc4ccccc4c3)cc2)CC1 (stereo not drawn)  1000 to 10000 nM
6  O=C([C@H]1CCCO1)N1CCC(Oc2ccc(-c3ccc4nccn4c3Cl)cc2)CC1 [Example 294]  1000 to 10000 nM
7  CCC(=O)N1CCC(Oc2ccc(-c3cncc(-c4ccccc4)c3)cc2)CC1  1000 to 10000 nM

Moving on to another compound below.
Quick one: IC50 of CCC(=O)N1CCC(Oc2cccc(-c3cnc4ccccc4c3)c2)CC1 ?
1000 to 10000 nM

---

measurement-target: recombinant human baculovirus-expressed GST-tagged FASN (Homo sapiens, UniProt P49327)
Construct: GST
assay-protocol: FASN enzyme activity assay, fluorescence-based detection of CoA with CPM
Format: biochemical
setup-conditions: 5 nM FASN, 150 μM NADPH, 10 μM acetyl-CoA, 25 μM malonyl-CoA, 90 minutes incubation; read-out: IC50 data for Compounds of Formulae I-V/V(a): Activity
pIC50: −log10 of the molar value. Where a name gives a salt, the structure may show the parent alone.
Exercise: for every item that follows, state its recorded pIC50.

In [3]: df
Out[3]:
                                   compound  measured_metric        result
0  CCC(=O)N1CCC(Oc2ccc(-c3ccc4cccnc4c3)nc2)CC1            pIC50  5.00 to 6.00
1  O=C(C1CC1)N1CCC(Oc2ccc(-c3ccn4cnnc4c3)cc2)CC1            pIC50  5.00 to 6.00
2  CCC(=O)N1CCC(Oc2ncc(-c3cnc4ccccc4c3)cn2)CC1            pIC50  5.00 to 6.00
3  CCC(=O)N1CCC(Oc2ccc(-c3ccc4cccnc4c3Cl)cc2F)CC1            pIC50  7.00 to 9.00

The following compounds each have a reported value; give each one's pIC50.
1. Cc1cc2cc(-c3ccc(OC4CCN(C(=O)[C@H]5CCCO5)CC4)cc3)ccc2cn1
2. Cc1cccc2cc(-c3ccc(OC4CCN(C(=O)[C@H]5CCCO5)CC4)cc3)cnc12
3. CCC(=O)N1CCC(Oc2ccc(-c3ccc4ncnn4c3C)cc2)CC1
4. Cc1c(-c2ccc(OC3CCN(C(=O)[C@H]4CCCO4)CC3)cc2)cnc2ccccc12
5. CCC(=O)N1CCC(Oc2ccc(-c3cnc4sccc4c3)cc2)CC1 [Example 250, TFA salt]

1: 7.00 to 9.00; 2: 7.00 to 9.00; 3: 5.00 to 6.00; 4: 7.00 to 9.00; 5: 7.00 to 9.00

---

Structures can show the parent of a compound that is named as a salt.
measured-metric: melting point

In [3]: df
Out[3]:
                                   compound         result
0  CCC(=O)N1CCC(Oc2ccc(-c3cnc4ccccc4c3)cc2Cl)CC1  183 to 185 °C
1  O=C(C1CC1)N1CCC(Oc2ccc(-c3cnc4ccccc4c3)cc2)CC1 (as salt: HCl)  170 to 173 °C
2  CCNC(=O)N1CCC(Oc2ccc(-c3ccc4nccn4c3Cl)cc2)CC1  189 to 193 °C
3  COCCNC(=O)N1CCC(Oc2ccc(-c3ccc4nccn4c3Cl)cc2)CC1  135 to 138 °C
4  O=C(C1CC1)N1CCC(Oc2ccc(-c3ccc4cccnc4c3)nc2)CC1 (as salt: HCl)  170 to 175 °C

Would you mind listing melting point for each of the following compounds?
1. CCCONC(=O)N1CCC(Oc2ccc(-c3ccc4cccnc4c3C)cc2)CC1
2. CC(C)C(=O)N1CCC(Sc2ccc(-c3ccc4cccnc4c3)cc2)CC1 (as salt: HCl)
3. O=C(C1CC1)N1CCC(Oc2ccc(-c3cnc4ccccc4c3)nc2)CC1 (as salt: HCl)

75 °C
120 °C
230 to 234 °C

---

measurement-target: recombinant human baculovirus-expressed GST-tagged FASN (Homo sapiens, UniProt P49327)
Construct: GST
assay-protocol: FASN enzyme activity assay, fluorescence-based detection of CoA with CPM
Type: biochemical
setup-conditions: 5 nM FASN, 150 μM NADPH, 10 μM acetyl-CoA, 25 μM malonyl-CoA, 90 minutes incubation; read-out: IC50 data for Compounds of Formulae I-V/V(a): Activity
Where a name gives a salt, the structure may show the parent alone.
measured-metric: IC50

In [3]: df
Out[3]:
                                   compound  measured_metric           result
0  Cc1c(-c2ccc(OC3CCN(C(=O)N4CCOCC4)CC3)cc2)ccc2cccnc12             IC50  0.1 to 0.999 µM

// batch mode: one IC50 value per listed entry
1. CCC(=O)N1CCC(Oc2ccc(-c3ccc4c(Cl)ccnc4c3)cc2)CC1 [Example 259, TFA salt]
2. COCCNc1c(-c2ccc(OC3CCN(C(=O)[C@H]4CCCO4)CC3)cc2)ccc2cccnc12
3. O=C(C1CCC1)N1CCC(Oc2ccc(-c3ccc(-c4ccccc4)nc3)cc2)CC1
4. CCC(=O)N1CCC(Oc2ccc(-c3ccc(Oc4ccccc4)nc3)cc2)CC1
5. O=C(c1cccc(-c2nc3ccccc3[nH]2)c1)N1CCC(Oc2ccc(-c3cnc4ccccc4c3)cc2)CC1 [Example 130, HCl]
6. CCC(=O)N1CCC(Oc2ccc(-c3ccc4cnc(OC)cc4c3)cc2)CC1

0.1 to 0.999 µM
0.001 to 0.099 µM
0.1 to 0.999 µM
1 to 10 µM
1 to 10 µM
1 to 10 µM

# return IC50 for each item in the list
1. CCC(=O)N1CCC(Oc2ccc(-c3ccc4cnc(N(C)C)cc4c3)cc2)CC1
2. O=C(C1CCC1)N1CCC(Oc2ccc(-c3cnc4c(c3)CCCC4)cc2)CC1
3. CC(C)C(=O)N1CCC(Oc2ccc(-c3cnc4ccccc4c3)cc2F)CC1

1 to 10 µM
1 to 10 µM
0.001 to 0.099 µM

---

Structures can show the parent of a compound that is named as a salt.
measured-metric: melting point (°C)
One number for each entry, in °C.

                                   compound  measured_metric  quantitative_readout
0  CC(C)C(=O)N1CCC(Sc2ccc(-c3ccc4cnccc4c3)cc2)CC1 (as salt: HCl) [Example 521]    melting point                   228
1  Cc1c(-c2ccc(OC3CCN(C(=O)NOC(C)C)CC3)cc2)cnc2ccccc12 [Example 588]    melting point                    80
2  CCONC(=O)N1CCC(Oc2ccc(-c3cnc4ccccc4c3C)cc2)CC1 [Example 587]    melting point                   152
3  CCNC(=O)N1CCC(Oc2ccc(-c3ccc4c(C)nccc4c3)cc2)CC1 [Example 578]    melting point                   211
4  CC(C)ONC(=O)N1CCC(Oc2ccc(-c3ccc4nccn4c3Cl)cc2)CC1 [Example 569]    melting point                   175

Here is the next item to consider.
Consider the compound shown here: CCCNC(=O)N1CCC(Oc2ccc(-c3ccc4nccn4c3Cl)cc2)CC1 [Example 566] What is its recorded melting point?
184
